protocol text: Activity on heart rate (male albino rats, electrocardiogram, per os)
Type: in vivo
test conditions: rat, dosage 30 mg/kg, 3 hours after treatment
Counter-ions that a name gives are not always drawn.
readout label: Heart rate (% of controls), 3 hours

# annotated cases, reported Heart rate (% of controls), 3 hours shown
CCOCCOc1ccc(C[C@@H](C)NCC(CO)c2ccccc2)cc1.O=C(O)C(=O)O (stereo partly shown) [Example 2a] :: 100 % of controls
CCOCCOc1ccc(CCN(CC(CO)c2ccccc2)CC(CO)c2ccccc2)cc1 (racemic) [Example 2c] :: 104 % of controls
CCOCCOc1ccc(CCNCC(CO)c2cccc(Cl)c2)cc1.O=C(O)C(=O)O (stereo not shown) [Example 2b] :: 99 % of controls

Heart rate (% of controls), 3 hours lookup needed for CCOCCOc1ccc(CCN(CC(CO)c2cccc(Cl)c2)C[C@H](O)c2ccccc2)cc1 (stereo partly shown) [Example 2d, oxalate] , thanks.
104 % of controls

====

protocol text: Activity on heart rate (male albino rats, electrocardiogram, per os)
Type: in vivo
test conditions: rat, dosage 30 mg/kg, 1 hour after treatment
Structures can show the parent of a compound that is named as a salt.
# Heart rate (% of controls), 1 hour per record follows

# annotated cases, reported Heart rate (% of controls), 1 hour shown
CCOCCOc1ccc(CCN(CC(CO)c2ccccc2)CC(CO)c2ccccc2)cc1 (racemic) :: 111 % of controls
CCOCCOc1ccc(CCNCC(CO)c2ccccc2)cc1.O=C(O)C(=O)O (single isomer, unassigned) :: 115 % of controls
CCOCCOc1ccc(CCNCC(CO)c2cccs2)cc1.O=C(O)C(=O)O (stereo not drawn) :: 108 % of controls
CCOCCOc1ccc(C[C@@H](C)NCC(CO)c2ccccc2)cc1.O=C(O)C(=O)O (stereo partly drawn) :: 105 % of controls
CCOCCOc1ccc(CCNCC(CO)c2cccc(Cl)c2)cc1.O=C(O)C(=O)O (stereo not drawn) :: 106 % of controls

Heart rate (% of controls), 1 hour lookup needed for CCOCCOc1ccc(CCN(CC(CO)c2cccc(Cl)c2)C[C@H](O)c2ccccc2)cc1 (stereo partly drawn) [Example 2d, oxalate] , thanks.
111 % of controls

====

protocol text: Activity on heart rate (male albino rats, electrocardiogram, per os)
Type: in vivo
test conditions: rat, dosage 100 mg/kg, 1 hour after treatment
# Heart rate (% of controls), 1 hour per record follows

Heart rate (% of controls), 1 hour lookup needed for CCOCCOc1ccc(C[C@@H](C)NCC(CO)c2ccccc2)cc1.O=C(O)C(=O)O (stereo partly shown) , thanks.
121 % of controls

====

protocol text: Activity on heart rate (male albino rats, electrocardiogram, per os)
Assay type: in vivo
test conditions: rat, dosage 100 mg/kg, 1 hour after treatment
# Heart rate (% of controls), 1 hour per record follows

# annotated cases, reported Heart rate (% of controls), 1 hour shown
CCOCCOc1ccc(CCNCC(CO)c2cccc(Cl)c2)cc1.O=C(O)C(=O)O (stereo not drawn) :: 114 % of controls
CCOCCOc1ccc(CCNCC(CO)c2cccs2)cc1.O=C(O)C(=O)O (stereo not drawn) :: 111 % of controls

In the following, a different molecule is considered.
Heart rate (% of controls), 1 hour lookup needed for OCC(CNCCc1ccc(OCCOCCc2ccccc2)cc1)c1ccccc1 (stereo not drawn) , thanks.
110 % of controls
